- Tested on: MT4 CMV-EGFP cells
- assay info: Cytotoxicity in mock-infected MT4 CMV-EGFP cells
- Format: cell-based, human
- applied conditions: fluorescence reduced by 50%
recorded endpoint: CC50

compound | test target | recorded value
N#Cc1cc2ccc(NCC3CCNC3)cc2n(-c2ccc([N+](=O)[O-])cc2)c1=O (centres unmarked) | MT4 CMV-EGFP cells | > 32 µM
CNCCNc1ccc2cc(C#N)c(=O)n(-c3ccc([N+](=O)[O-])cc3)c2c1 | MT4 CMV-EGFP cells | > 32 µM
Cc1ccc2cc(C#N)c(=O)n(-c3ccc([N+](=O)[O-])cc3)c2c1 | MT4 CMV-EGFP cells | > 100 µM
N#Cc1cc2ccc(NCCCN3CCCC3)cc2n(-c2ccc([N+](=O)[O-])cc2)c1=O | MT4 CMV-EGFP cells | 69.5 µM
N#Cc1cc2ccc(-c3cccc(CO)c3)cc2n(-c2ccc([N+](=O)[O-])cc2)c1=O | MT4 CMV-EGFP cells | 18.6 µM
Cc1ccc(-n2c(=O)c(C#N)c(N)c3ccccc32)cc1C#N | MT4 CMV-EGFP cells | > 100 µM
N#Cc1c(N)c2ccc(C(F)(F)F)cc2n(-c2ccc([N+](=O)[O-])cc2)c1=O | MT4 CMV-EGFP cells | > 100 µM
N#Cc1cc2ccc(NCCN3CCCC3)cc2n(-c2ccc([N+](=O)[O-])cc2)c1=O | MT4 CMV-EGFP cells | > 100 µM
